- Tested on: RAW-Dual
- testName: NF-kB SEAP reporter activity, fold change vs agonist alone; cytotoxicity flag (confluency mask): not cytotoxic; higher = enhanced NF-kB activity
- conditionLabel: agonist: ODN 1826 (TLR9) 0.5 ug/mL
Over roughly 2,900 compounds, “NF-kB SEAP reporter activity, fold change vs agonist alone” has its median near 0.99; the highest 2% begin near 2.6. Only a selection was taken, and the highest values are over-represented in it overall.
// label = fulfilled if NF-kB SEAP reporter activity is not less than 1, otherwise not fulfilled

Prompt: Reported NF-kB SEAP reporter activity reaches at least 1 for COC1/C=C\C=C(/C)C(=O)NC2=CC(=O)C(NCCN(C)C)=C(CC(C)CC(OC)C(O)C(C)/C=C(\C)C1OC(N)=O)C2=O.Cl (stereo unspecified) (library stock concentration (final ~1000-fold dilution): 10 mM) ?
Completion: not fulfilled

Prompt: Also check C=C(CC(=O)OCCCCCCCC)C(=O)O (library stock concentration (final ~1000-fold dilution): 10 mM)
Completion: not fulfilled

Prompt: Also check COc1ccc(CCNCC(O)COc2cccc(C)c2)cc1OC.Cl (stereo unspecified) (library stock concentration (final ~1000-fold dilution): 10 mM)
Completion: not fulfilled

Prompt: Also check COc1ccc(-c2ccc3c(N4CCOCC4)nc(N4CC(C)OC(C)C4)nc3n2)cc1CO (stereo unspecified) (library stock concentration (final ~1000-fold dilution): 10 mM)
Completion: not fulfilled

Prompt: Also check Cc1nc(-c2nc(-c3ccc(OC(F)(F)F)cc3)no2)nn1Cc1cccc(N2CCC(S(C)(=O)=O)CC2)c1 (library stock concentration (final ~1000-fold dilution): 10 mM)
Completion: not fulfilled

Prompt: Also check Cc1cccc(Nc2nc(-c3ccncc3)cs2)c1 (library stock concentration (final ~1000-fold dilution): 10 mM)
Completion: fulfilled

Prompt: Also check CC(C)(Cc1ccc2ccccc2c1)NCC(O)COc1cccc(Cl)c1C#N (stereo unspecified) (library stock concentration (final ~1000-fold dilution): 10 mM)
Completion: not fulfilled

Prompt: Also check CN1CCOC(c2ccccc2)c2ccccc2C1.Cl (stereo unspecified) (library stock concentration (final ~1000-fold dilution): 10 mM water)
Completion: not fulfilled

Prompt: Also check O=C(/C=C/c1ccc(O)c(O)c1)O[C@@H]1CC(O)(C(=O)O)C[C@@H](OC(=O)/C=C/c2ccc(O)c(O)c2)C1O (stereo partly specified) (library stock concentration (final ~1000-fold dilution): 10 mM)
Completion: fulfilled

Prompt: Also check Cn1ncc(Cl)c1-c1cc(C(=O)NC(CN)Cc2cccc(F)c2)sc1Cl (stereo unspecified) (library stock concentration (final ~1000-fold dilution): 10 mM)
Completion: fulfilled

Prompt: Also check CC(C(=O)Nc1ccc(Cl)cc1)C1CCC(c2ccnc3ccc(F)cc23)CC1 (stereo unspecified) (library stock concentration (final ~1000-fold dilution): 10 mM)
Completion: fulfilled

Prompt: Also check CC12CCC(O)CC1=CCC1C2CCC2(C)C(C(O)CC(O)(C(F)(F)F)C(F)(F)F)CCC12 (stereo unspecified) (library stock concentration (final ~1000-fold dilution): 10 mM)
Completion: not fulfilled

Prompt: Also check CCCCN(Cc1ccc(C(=O)NO)cc1)C(=O)Nc1ccccc1 (library stock concentration (final ~1000-fold dilution): 10 mM)
Completion: fulfilled

Prompt: Also check Nc1nc(-c2ccco2)c2cnn(Cc3ccccc3F)c2n1 (library stock concentration (final ~1000-fold dilution): 10 mM)
Completion: fulfilled

Recorded values, source the supplement of paper PMC10037445.
